# stated.conditions: in acetone, 308.15 K
endpoint: solubility (mole fraction)
Form field (numeric): enter value without unit.

Request: For the molecule CCOC(=O)OC1=C(c2cc(C)ccc2C)C(=O)NC12CCC(OC)CC2 (stereo unspecified) , what solubility (mole fraction) is on record?
Result: 0.0392

====

# stated.conditions: in isopropanol, 293.15 K
endpoint: solubility (mole fraction)
Form field (numeric): enter value without unit.

Request: For the molecule CCOC(=O)OC1=C(c2cc(C)ccc2C)C(=O)NC12CCC(OC)CC2 (stereo unspecified) , what solubility (mole fraction) is on record?
Result: 0.00415

====

# stated.conditions: in isopropanol, 288.15 K
endpoint: solubility (mole fraction)
Form field (numeric): enter value without unit.

Request: For the compound CCOC(=O)OC1=C(c2cc(C)ccc2C)C(=O)NC12CCC(OC)CC2 (stereo unspecified) , what solubility (mole fraction) is on record?
Result: 0.0031

====

# stated.conditions: in ethanol, 293.15 K
endpoint: solubility (mole fraction)
Form field (numeric): enter value without unit.

Request: For the compound CCOC(=O)OC1=C(c2cc(C)ccc2C)C(=O)NC12CCC(OC)CC2 (stereo unspecified) , what solubility (mole fraction) is on record?
Result: 0.00624

====

# stated.conditions: in ethanol, 313.15 K
endpoint: solubility (mole fraction)
Form field (numeric): enter value without unit.

Request: For the compound CCOC(=O)OC1=C(c2cc(C)ccc2C)C(=O)NC12CCC(OC)CC2 (stereo unspecified) , what solubility (mole fraction) is on record?
Result: 0.0169

====

# stated.conditions: in acetone, 283.15 K
endpoint: solubility (mole fraction)

Request: For the compound CCOC(=O)OC1=C(c2cc(C)ccc2C)C(=O)NC12CCC(OC)CC2 (stereo unspecified) , what solubility (mole fraction) is on record?
Result: 0.0151

====

# stated.conditions: in acetone, 288.15 K
endpoint: solubility (mole fraction)
Form field (numeric): enter value without unit.

Request: For the compound CCOC(=O)OC1=C(c2cc(C)ccc2C)C(=O)NC12CCC(OC)CC2 (stereo unspecified) , what solubility (mole fraction) is on record?
Result: 0.0183

====

# stated.conditions: in ethanol, 308.15 K
endpoint: solubility (mole fraction)
Form field (numeric): enter value without unit.

Request: For the compound CCOC(=O)OC1=C(c2cc(C)ccc2C)C(=O)NC12CCC(OC)CC2 (stereo unspecified) , what solubility (mole fraction) is on record?
Result: 0.0132

====

# stated.conditions: in acetone, 298.15 K
endpoint: solubility (mole fraction)
Form field (numeric): enter value without unit.

Request: For the compound CCOC(=O)OC1=C(c2cc(C)ccc2C)C(=O)NC12CCC(OC)CC2 (stereo unspecified) , what solubility (mole fraction) is on record?
Result: 0.0267

====

# stated.conditions: in acetone, 318.15 K
endpoint: solubility (mole fraction)
Form field (numeric): enter value without unit.

Request: For the compound CCOC(=O)OC1=C(c2cc(C)ccc2C)C(=O)NC12CCC(OC)CC2 (stereo unspecified) , what solubility (mole fraction) is on record?
Result: 0.0571

====

# stated.conditions: in methanol, 283.15 K
endpoint: solubility (mole fraction)

Request: For the molecule CCOC(=O)OC1=C(c2cc(C)ccc2C)C(=O)NC12CCC(OC)CC2 (stereo unspecified) , what solubility (mole fraction) is on record?
Result: 0.00669
